Read-out: xenobiotic metabolism (CYP1A1), CYP1A1 (gene 1543)
Experiment: CLD_CYP1A1_6hr: CellzDirect (CLD) Gene Expression Assay for xenobiotic metabolism (CYP1A1) at 6 hours (AID 2283661)
Procedure: CLD_6hr is a cell-based, multiplexed-readout assay that uses hepatocyte, a human liver primary cell, with measurements taken at 6 hours after chemical dosing in a 96-well plate.CLD_CYP1A1_6hr is one of 16 assay component(s) measured or calculated from the CLD_6hr assay. […] Furthermore, this assay endpoint can be referred to as a primary readout. […]
Inconclusive results are not listed. Calls of active or inactive are those of the source. The calls were made as follows: active = hit-call score of the fitted dose curve at least 0.9, where 1 is the maximum; inconclusive = response in the unintended direction; inactive = score below 0.9.
Outcome codes: active, inactive

[
  {
    "Compound": "CCC(O)=C1C(=O)CC(C(=O)O)CC1=O (configuration not stated)",
    "Assigned Class": "inactive"
  },
  {
    "Compound": "O=C(Nc1ccc([N+](=O)[O-])cc1Cl)c1cc(Cl)ccc1O",
    "Assigned Class": "active"
  },
  {
    "Compound": "COC(=O)c1ccccc1C(=O)O",
    "Assigned Class": "inactive"
  },
  {
    "Compound": "N#CSCSc1nc2ccccc2s1",
    "Assigned Class": "inactive"
  },
  {
    "Compound": "CCCCOC(=O)[C@@H](C)Oc1ccc(Oc2ccc(C(F)(F)F)cn2)cc1",
    "Assigned Class": "active"
  },
  {
    "Compound": "O=C(O)C1(C(=O)Nc2ccc(Cl)cc2Cl)CC1",
    "Assigned Class": "inactive"
  },
  {
    "Compound": "CCCCOCCOCCOCc1cc2c(cc1CCC)OCO2",
    "Assigned Class": "active"
  },
  {
    "Compound": "c1ccc(Nc2ccccc2)cc1",
    "Assigned Class": "active"
  },
  {
    "Compound": "CCOC(=O)NCCOc1ccc(Oc2ccccc2)cc1",
    "Assigned Class": "inactive"
  },
  {
    "Compound": "CCOC(=O)COc1cc(-n2ncc(C(F)(F)F)c(C)c2=O)c(F)cc1Cl",
    "Assigned Class": "inactive"
  },
  {
    "Compound": "S=C(S)NCCNC(=S)S.[Mn+2].[S-]C([S-])=NCCN=C([S-])[S-].[Zn+2]",
    "Assigned Class": "active"
  },
  {
    "Compound": "C=CCOC(Cn1ccnc1)c1ccc(Cl)cc1Cl (configuration not stated)",
    "Assigned Class": "active"
  },
  {
    "Compound": "CCCCOC(=O)C(C)Oc1ccc(Oc2ccc(C(F)(F)F)cn2)cc1 (configuration not stated)",
    "Assigned Class": "inactive"
  },
  {
    "Compound": "CCCCCCC(C)OC(=O)COc1nc(F)c(Cl)c(N)c1Cl (configuration not stated)",
    "Assigned Class": "inactive"
  },
  {
    "Compound": "COC(=O)CSc1cc(N=c2sc(=O)n3n2CCCC3)c(F)cc1Cl",
    "Assigned Class": "active"
  },
  {
    "Compound": "CCCCCOC(=O)COc1cc(N2C(=O)C3=C(CCCC3)C2=O)c(F)cc1Cl",
    "Assigned Class": "active"
  },
  {
    "Compound": "COC(=O)c1cccc(C)c1S(=O)(=O)NC(=O)Nc1nc(OCC(F)(F)F)nc(N(C)C)n1",
    "Assigned Class": "active"
  },
  {
    "Compound": "CN(C)C(=O)Nc1ccc(Cl)c(Cl)c1",
    "Assigned Class": "active"
  },
  {
    "Compound": "CC(C)(C)[C@@H](O)[C@@H](Cc1ccc(Cl)cc1)n1cncn1",
    "Assigned Class": "active"
  },
  {
    "Compound": "CC1(C)C(C=C(Cl)Cl)C1C(=O)OCc1cccc(Oc2ccccc2)c1 (configuration not stated)",
    "Assigned Class": "inactive"
  },
  {
    "Compound": "Oc1ccc(C(c2ccc(O)cc2)C(Cl)(Cl)Cl)cc1",
    "Assigned Class": "active"
  },
  {
    "Compound": "COc1c(Cl)ccc(Cl)c1C(=O)O",
    "Assigned Class": "inactive"
  }
]

====

Assay: BSK_3C_SRB: Viability Assessment in the BioMAP Diversity Plus: 3C Assay (AID 2283023);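 also: cells read 24 h after compound dosing; fitted both ways against DMSO so a hit may be signal rise or drop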
Conditions: primary human endothelial cells (HUVEC)
Active and inactive are the calls of the source. Rule for the calls: active = hit-call score of the fitted dose curve at least 0.9, where 1 is the maximum; inactive = score below 0.9.
Property Measured: AC50

[
  {
    "Molecule": "CCN(Cc1c(F)cccc1Cl)c1c([N+](=O)[O-])cc(C(F)(F)F)cc1[N+](=O)[O-]",
    "Measured": "11.8 µM (active)"
  },
  {
    "Molecule": "CCCCC(CC)CN1C(=O)C2C3C=CC(C3)C2C1=O (configuration not stated)",
    "Measured": "16.9 µM (active)"
  },
  {
    "Molecule": "CCCCOC(=O)C(C)Oc1ccc(Oc2ccc(C(F)(F)F)cn2)cc1 (configuration not stated)",
    "Measured": "inactive"
  },
  {
    "Molecule": "CCOC(=O)C(C)Oc1ccc(Oc2nc3ccc(Cl)cc3o2)cc1 (configuration not stated)",
    "Measured": "inactive"
  },
  {
    "Molecule": "C#CCOC(=O)[C@@H](C)Oc1ccc(Oc2ncc(Cl)cc2F)cc1",
    "Measured": "inactive"
  },
  {
    "Molecule": "CCC(C)OC(=O)N1CCCCC1CCO (configuration not stated)",
    "Measured": "inactive"
  },
  {
    "Molecule": "CN(C)C(=O)Nc1ccc(Cl)c(Cl)c1",
    "Measured": "inactive"
  },
  {
    "Molecule": "CCOC(=O)COc1cc(-n2ncc(C(F)(F)F)c(C)c2=O)c(F)cc1Cl",
    "Measured": "inactive"
  },
  {
    "Molecule": "COC(=O)c1ccc(I)cc1S(=O)(=O)NC(=O)Nc1nc(C)nc(OC)n1",
    "Measured": "inactive"
  },
  {
    "Molecule": "O=C(c1ccccc1)C1CCCCC1",
    "Measured": "inactive"
  },
  {
    "Molecule": "CCCCOC(=O)[C@@H](C)Oc1ccc(Oc2ccc(C(F)(F)F)cn2)cc1",
    "Measured": "inactive"
  },
  {
    "Molecule": "c1ccc(Nc2ccccc2)cc1",
    "Measured": "inactive"
  }
]

====

Biological target: rat Peripheral-type Benzodiazepine Receptor (PBR), Tspo (gene 24230) (UniProt P16257)
Sequence (P16257 whole entry, looked up): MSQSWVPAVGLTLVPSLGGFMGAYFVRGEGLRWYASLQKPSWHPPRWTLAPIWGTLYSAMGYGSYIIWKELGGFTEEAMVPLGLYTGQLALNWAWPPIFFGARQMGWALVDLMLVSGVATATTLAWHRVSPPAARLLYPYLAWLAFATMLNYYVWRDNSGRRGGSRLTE
Assay: NVS_MP_rPBR: NovaScreen (NVS) Membrane Protein Assay for rat Peripheral-type Benzodiazepine Receptor (PBR) (AID 2283335)
Inconclusive results are not listed. Calls of active or inactive are those of the source. Rule for the calls: active = hit-call score of the fitted dose curve at least 0.9, where 1 is the maximum; inconclusive = response in the unintended direction; inactive = score below 0.9.
Outcome codes: YES = active, NO = inactive

[
  {
    "Compound": "CCCCCCC(C)OC(=O)COc1nc(F)c(Cl)c(N)c1Cl (centres undefined)",
    "Assigned Class": "YES"
  },
  {
    "Compound": "CC1(C)C(C=C(Cl)Cl)C1C(=O)OCc1cccc(Oc2ccccc2)c1 (centres undefined)",
    "Assigned Class": "NO"
  },
  {
    "Compound": "CN(C)C(=O)Nc1ccc(Cl)c(Cl)c1",
    "Assigned Class": "YES"
  },
  {
    "Compound": "Oc1ccc(C(c2ccc(O)cc2)C(Cl)(Cl)Cl)cc1",
    "Assigned Class": "YES"
  }
]

====

Read-out: Monokine induced gamma interferon (MIG), CXCL9 (gene 4283)
Experiment: BSK_CASM3C_MIG: BioMAP Diversity Plus: CASM3C Assay for Monokine induced gamma interferon (MIG) Biomarker Activity (AID 2283048);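 also: MIG protein level measured by ELISA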
Settings: primary human coronary artery smooth muscle cells; actives raise or lower the signal
Active and inactive are the calls of the source. How the source made its calls: active means hit-call score of the fitted dose curve at least 0.9, where 1 is the maximum; inactive means score below 0.9.

[
  {
    "Test Smiles": "S=C([S-])NCCNC(=S)[S-].[Mn+2]",
    "outcome": "inactive"
  },
  {
    "Test Smiles": "O=C(O)c1ccccc1",
    "outcome": "inactive"
  },
  {
    "Test Smiles": "O=C(c1ccc(O)cc1O)c1ccc(O)cc1O",
    "outcome": "inactive"
  },
  {
    "Test Smiles": "CCOC(=O)NCCOc1ccc(Oc2ccccc2)cc1",
    "outcome": "inactive"
  },
  {
    "Test Smiles": "CCCN(CCC)c1c([N+](=O)[O-])cc(C(F)(F)F)c(N)c1[N+](=O)[O-]",
    "outcome": "inactive"
  },
  {
    "Test Smiles": "COC(=O)c1ccc(I)cc1S(=O)(=O)NC(=O)Nc1nc(C)nc(OC)n1",
    "outcome": "inactive"
  }
]

====

Test: APR_HepG2_CellLoss_24hr: Apredica 24-hour HepG2 Assay for Cell Loss (AID 2282908);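 as to AC50: fit in both directions so a hit may be cell loss or gain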
Conditions: high-content imaging
Calls of active or inactive are those of the source. How the source made its calls: active means hit-call score of the fitted dose curve at least 0.9, where 1 is the maximum; inactive means score below 0.9.

[
  {
    "Molecule": "N[C@@H](Cc1cc(I)c(Oc2ccc(O)c(I)c2)c(I)c1)C(=O)O",
    "AC50": "inactive"
  },
  {
    "Molecule": "COC(=O)c1cccc(C)c1S(=O)(=O)NC(=O)Nc1nc(OCC(F)(F)F)nc(N(C)C)n1",
    "AC50": "inactive"
  },
  {
    "Molecule": "COC(=O)c1ccc(CNS(C)(=O)=O)cc1S(=O)(=O)NC(=O)Nc1nc(OC)cc(OC)n1",
    "AC50": "inactive"
  },
  {
    "Molecule": "C=CCOC(Cn1ccnc1)c1ccc(Cl)cc1Cl (configuration not stated)",
    "AC50": "55.8 µM (active)"
  },
  {
    "Molecule": "CCNc1nc(N)nc(Cl)n1",
    "AC50": "inactive"
  },
  {
    "Molecule": "C#CCOC(=O)[C@@H](C)Oc1ccc(Oc2ncc(Cl)cc2F)cc1",
    "AC50": "inactive"
  },
  {
    "Molecule": "CC(C)CCCCCCc1ccc(O)cc1",
    "AC50": "26.8 µM (active)"
  },
  {
    "Molecule": "c1ccc(Nc2ccccc2)cc1",
    "AC50": "inactive"
  },
  {
    "Molecule": "S=C([S-])NCCNC(=S)[S-].[Mn+2]",
    "AC50": "inactive"
  },
  {
    "Molecule": "N#CSCSc1nc2ccccc2s1",
    "AC50": "42.9 µM (active)"
  },
  {
    "Molecule": "CCOC(=O)COc1cc(-n2ncc(C(F)(F)F)c(C)c2=O)c(F)cc1Cl",
    "AC50": "inactive"
  },
  {
    "Molecule": "Oc1ccc(C(c2ccc(O)cc2)C(Cl)(Cl)Cl)cc1",
    "AC50": "135 µM (active)"
  }
]
